# change in vivo at 20 mg/kg per record follows
# System: non-insulin-dependent diabetes induced in rats by Streptozotocin
# experiment description: Antidiabetic activity in the Nostz rat (non-insulin-dependent diabetes induced by neonatal streptozotocin), glycaemia after oral treatment
# Type: in vivo
# assay context: 24 h, 20 mg/kg/D oral, 1 day of treatment, diabetic rats, blood 2 h after last administration, read-out: percentage variation of glycaemia at D1 relative to D0
Quick reminder: number only, in %, skip the unit.

# molecule CC(C)CC1N=C(N)NC(N(C)C)=N1 (stereo not shown) [Compound 43] ; its change in vivo at 20 mg/kg = -4

The value of change in vivo at 20 mg/kg measured for the molecule C=CCNC1=NC(C)N=C(N(C)C)N1 (stereo not shown) [Compound 26] turned out to be -6

Please fill in: change in vivo at 20 mg/kg reported for CN(C)C1=NC2(CCCC2)N=C(N)N1 [Compound 31] = -5

Please fill in: change in vivo at 20 mg/kg reported for CCCC1N=C(N)NC(N(C)C)=N1 (stereo not shown) [Compound 32] = 2
